Test system: MDA-N
TEST_PROTOCOL: NCI tumour cell line growth inhibition, 48 h
PROPERTY_LABEL: TGI

Check out these entries, answers already filled in.
COMPOUND	PROPERTY_LABEL	RESULT
CN(C)c1ccc(/C=c2/c3ccccc3n3c2c2c([n+]3C)CCCC2)cc1	TGI	1.27 µM
C=CCCON(C(=O)OC(C)(C)C)C(C)(C)C	TGI	> 100 µM
CC1(C)[C@@H](Cn2ccc(=O)[nH]c2=O)CC[C@@]1(C)CO	TGI	> 100 µM
COC(=O)C1=C(C(=O)OC)N(c2ccc(OC)cc2[N+](=O)[O-])C(c2ccc(C)cc2)=CC1c1ccc(OC)cc1OC (stereo unspecified)	TGI	> 100 µM
CC(C)C1=CC23CCC4C(C)(C(=O)O)CCCC4(C)C2CC1C1C(=O)N(c2ccc(Cc4ccc(N5C(=O)C6C7CC8C9(C)CCCC(C)(C(=O)O)C9CCC8(C=C7C(C)C)C6C5=O)cc4)cc2)C(=O)C13 (stereo unspecified)	TGI	24.8 µM

We next turn to a different compound, shown below.
Please report TGI for the following compound: CC(=O)N=C1N(/C=C2\C(=O)Oc3ccccc3C2=O)C(=O)/C(=C/c2cccc(Cl)c2Cl)N1C
> 100 µM

====

Test system: MDA-N
TEST_PROTOCOL: NCI tumour cell line growth inhibition, 48 h
PROPERTY_LABEL: TGI

Check out these entries, answers already filled in.
> print(dat)
                                   compound  assayed.target    result
1  CC1(C)/C(=N\NC(N)=O)C2CCC1C2 (stereo not given)           MDA-N  > 100 µM
2  COc1cc(C2c3cc4c(cc3OC(N3CCCCC3)C2C)OCO4)cc(OC)c1O (stereo not given)           MDA-N    5.6 µM
3         CCOC(=O)Nc1[nH]cc(-c2ccccc2)c1C#N           MDA-N  > 100 µM
4            O=C(/C=C/c1ccccc1)Oc1cccc(O)c1           MDA-N  > 100 µM

Please report TGI for the following compound: O=C1c2ccccc2C(=O)c2c(NCC(O)CO)ccc(NCC(O)CO)c21 (stereo not given)
> 100 µM

====

Tested on: OVCAR-5 ovarian
TEST_PROTOCOL: NCI tumour cell line growth inhibition, 48 h
Please go through the items and note down their TGI.
Numbers only, in µM.

Check out these entries, answers already filled in.
> print(dat)
                                   molecule  number
1  CC(=O)OC1COC(Oc2c(C)c3c4c(c2O)[C@@H](C)CC[C@@H]4[C@@H](C)C[C@H]3C=C(C)C)C(O)C1OC(C)=O (stereo not given in full)    30.1
2    COc1cc(/C=C/C(=O)c2ccc(O)c(OC)c2)ccc1O    50.8
3  C/C=C(\C)C(=O)O[C@H]1C=CC(=O)O[C@H]1CCC(=O)[C@H](C)O    50.8

We next turn to a different molecule, shown below.
Please report TGI for the following molecule: C=C1C(=O)OC2CC(C)C(C(CC(C)=O)OC(C)=O)=CCC12 (stereo not given)
31.6

====

Test system: PC-3 prostate
TEST_PROTOCOL: NCI tumour cell line growth inhibition, 48 h
PROPERTY_LABEL: TGI

COMPOUND	TGI
COc1cccc(C2CC(C)(O)Oc3cc4c(cc32)OCO4)c1O (stereo not given)	> 100 µM
Nc1c(C(=O)O)nnc2ccc(Cl)cc12	> 100 µM
O=S(=O)(O)CCCc1cccc2ccccc12	> 100 µM
N=C(N)C1CN(CCc2c[nH]c3ccccc23)C(=O)NC1=O (stereo not given)	> 100 µM

Please report TGI for the following compound: O=C(Nc1ccccc1)c1cc(S(=O)(=O)NC2=NC(c3ccccc3)c3cc(Cl)ccc3N2)c(SSc2cc(Cl)c(C(=O)Nc3ccccc3)cc2S(=O)(=O)NC2=NC(c3ccccc3)c3cc(Cl)ccc3N2)cc1Cl (stereo not given)
> 100 µM
